A collection of compounds and their measured concentration at 3 h
# test.summary: Drug concentration in plasma and brain homogenate
# Type: in vivo, C57BL/6 wild-type male mice
# settings: male, C57BL/6, mouse, brain homogenate, ip
measure: concentration at 3 h (ng/mL)

CO[C@H]1/C=C/O[C@@]2(C)Oc3c(C)c(O)c4c(O)c(c(/C=N/N5CCN(C)CC5)c(O)c4c3C2=O)NC(=O)/C(C)=C\C=C\[C@H](C)[C@H](O)[C@@H](C)[C@@H](O)[C@@H](C)[C@H](OC(C)=O)[C@@H]1C	150
Cn1c(=O)c2c(ncn2C)n(C)c1=O	11800
